Target: Luciferin 4-monooxygenase (Photinus pyralis, UniProt P08659)
Sequence (P08659 whole entry): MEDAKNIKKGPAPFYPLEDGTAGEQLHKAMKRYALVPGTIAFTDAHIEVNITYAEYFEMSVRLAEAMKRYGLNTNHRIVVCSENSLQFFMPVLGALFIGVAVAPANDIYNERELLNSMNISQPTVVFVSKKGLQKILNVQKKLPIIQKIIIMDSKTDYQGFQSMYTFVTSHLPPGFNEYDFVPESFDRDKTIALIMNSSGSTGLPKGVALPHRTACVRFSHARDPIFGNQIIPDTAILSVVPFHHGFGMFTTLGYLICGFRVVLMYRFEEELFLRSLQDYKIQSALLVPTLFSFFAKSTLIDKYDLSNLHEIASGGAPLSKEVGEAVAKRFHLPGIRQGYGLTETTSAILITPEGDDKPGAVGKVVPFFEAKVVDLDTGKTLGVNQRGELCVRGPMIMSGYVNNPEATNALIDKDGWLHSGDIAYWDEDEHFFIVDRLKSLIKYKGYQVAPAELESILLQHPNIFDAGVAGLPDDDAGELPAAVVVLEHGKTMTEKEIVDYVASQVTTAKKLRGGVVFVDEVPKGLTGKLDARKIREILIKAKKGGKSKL
Assay: inhibition of purified Photinus pyralis luciferase – biochemical, luminescence, dose response (AID 1891)
Calls of active or inactive are those of the source.
ENDPOINT LABEL: EC50

Below, each entry is followed by its recorded EC50 result.
Measured EC50 of CCOC(=O)N1CCC(N2C(=O)c3ccccc3C2Nc2cc(OC)c(OC)c(OC)c2)CC1 (stereo not drawn) : > 112 µM (not active)

Measured EC50 of `COc1ccc2cc(C(=O)N3CCN(Cc4ccc5c(c4)OCO5)CC3)[nH]c2c1` : > 112 µM (not active)

Measured EC50 of `COc1ccc(/C=N/NC(=O)c2nonc2C)cc1` : 9.4 µM (active)

Please state, for each entry, its recorded EC50.
1. O=C(Nc1ccccc1C(=O)N/N=C/c1ccncc1)c1ccccc1
2. COc1ccccc1NS(=O)(=O)c1ccc(NC(C)=O)cc1

Marked response:
["< 0.088 µM (active)", "> 112 µM (not active)"]

* * *

Target: Aminopeptidase N (Plasmodium falciparum FcB1/Columbia, UniProt O96935)
Sequence (O96935 whole entry): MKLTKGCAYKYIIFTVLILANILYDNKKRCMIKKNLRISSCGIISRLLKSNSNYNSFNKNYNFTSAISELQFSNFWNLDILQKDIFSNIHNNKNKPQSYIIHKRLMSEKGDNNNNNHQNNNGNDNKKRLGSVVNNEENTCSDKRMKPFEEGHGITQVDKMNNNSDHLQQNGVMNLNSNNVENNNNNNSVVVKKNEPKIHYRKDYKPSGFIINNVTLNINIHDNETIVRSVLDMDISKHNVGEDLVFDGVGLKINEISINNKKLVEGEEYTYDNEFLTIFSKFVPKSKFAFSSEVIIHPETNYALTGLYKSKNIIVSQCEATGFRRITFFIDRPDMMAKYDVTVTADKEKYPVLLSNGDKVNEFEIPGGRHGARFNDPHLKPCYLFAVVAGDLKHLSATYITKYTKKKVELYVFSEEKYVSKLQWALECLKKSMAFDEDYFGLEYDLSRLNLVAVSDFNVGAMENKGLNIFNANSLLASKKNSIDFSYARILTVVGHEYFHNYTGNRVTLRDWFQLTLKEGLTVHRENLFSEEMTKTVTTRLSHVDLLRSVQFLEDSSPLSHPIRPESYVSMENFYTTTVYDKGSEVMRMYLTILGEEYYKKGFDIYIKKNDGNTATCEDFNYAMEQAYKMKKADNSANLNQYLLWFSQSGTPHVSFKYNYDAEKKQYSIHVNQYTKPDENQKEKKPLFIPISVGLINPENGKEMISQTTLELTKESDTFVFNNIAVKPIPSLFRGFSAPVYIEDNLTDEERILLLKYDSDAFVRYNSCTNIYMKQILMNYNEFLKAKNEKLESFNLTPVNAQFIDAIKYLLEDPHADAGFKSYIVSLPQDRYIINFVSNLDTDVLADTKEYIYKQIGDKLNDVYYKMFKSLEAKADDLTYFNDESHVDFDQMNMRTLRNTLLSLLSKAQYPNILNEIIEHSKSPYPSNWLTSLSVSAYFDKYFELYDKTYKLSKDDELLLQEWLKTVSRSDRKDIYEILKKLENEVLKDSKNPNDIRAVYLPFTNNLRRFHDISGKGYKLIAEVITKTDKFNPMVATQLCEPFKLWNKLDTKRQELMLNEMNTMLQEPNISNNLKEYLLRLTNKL
Test: malaria alanyl aminopeptidase activity blockers – biochemical, fluorogenic H-Leu-NHMec substrate, 1536-well (AID 1445)
Set-up: species or system Plasmodium falciparum 3D7, 3D7
The source made the active and inactive calls.
ENDPOINT LABEL: IC50

Below, each entry is followed by its recorded IC50 result.
Measured IC50 of `CN(C)c1oc(/C=C/c2ccccc2)nc1C#N` : 23.9 µM (active)

Measured IC50 of `CCc1ccc(-n2cccc2/C=C2/C(=N)N3C(=NC2=O)SN=C3S(C)(=O)=O)cc1` : 34.4 µM (active)

Measured IC50 of `Cc1cc(C(=O)NN=C(S)NCc2ccco2)nn1C` : 57.7 µM (active)

Measured IC50 of `O=C(NCCN1CCOCC1)c1cc2c(=O)n3ccccc3nc2n1Cc1ccccc1` : 102 µM (active)

Measured IC50 of `CCc1nnc(NC(=O)CSc2nnc(-c3ccc(NS(=O)(=O)c4ccccc4)cc3)o2)s1` : 59.8 µM (active)

Next:
Measured IC50 of `O=S(=O)(Nc1nc2ccccc2nc1Nc1cccc(S(=O)(=O)N2CCCCC2)c1)c1ccccc1` : 91.9 µM (active)

* * *

Provide the recorded IC50 for the entries that follow.
Target: Polyadenylate-binding protein 1 (Homo sapiens)
Sequence (P11940 whole entry, the tested form may be a part): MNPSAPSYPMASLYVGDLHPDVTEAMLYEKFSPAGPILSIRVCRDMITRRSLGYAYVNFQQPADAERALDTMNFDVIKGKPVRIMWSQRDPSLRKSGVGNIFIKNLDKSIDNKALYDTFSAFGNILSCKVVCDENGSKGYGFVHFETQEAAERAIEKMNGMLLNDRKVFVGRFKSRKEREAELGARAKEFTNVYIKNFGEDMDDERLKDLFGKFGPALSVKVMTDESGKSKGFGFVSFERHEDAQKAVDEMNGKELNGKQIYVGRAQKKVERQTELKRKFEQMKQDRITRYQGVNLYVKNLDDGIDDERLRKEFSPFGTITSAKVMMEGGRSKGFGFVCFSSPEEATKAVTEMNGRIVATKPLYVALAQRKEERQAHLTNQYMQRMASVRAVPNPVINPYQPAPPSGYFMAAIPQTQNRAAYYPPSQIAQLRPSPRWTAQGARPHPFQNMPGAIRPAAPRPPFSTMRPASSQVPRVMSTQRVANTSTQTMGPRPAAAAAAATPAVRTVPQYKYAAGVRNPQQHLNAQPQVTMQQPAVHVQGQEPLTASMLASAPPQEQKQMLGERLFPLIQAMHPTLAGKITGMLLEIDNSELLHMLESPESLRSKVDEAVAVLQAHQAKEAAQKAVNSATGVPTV
Assay: MLLE domain peptide-binding blockers, IC50 – biochemical, fluorescence polarization, FITC-PAM2 peptide, dose response (AID 602259)
Assay type: functional
Details: read-out: IC50_Mean
The source made the active and inactive calls.

Measured IC50 of `COc1ccccc1CNC(=O)CSC1=NCCS1` : > 66 µM (inactive)

Measured IC50 of CC1C2C(C)N(C)C(=O)N(C)C2N(C)C(=O)N1C (stereo unspecified) : 29.1 µM (inactive)

Measured IC50 of `O=C(NC(=S)Nc1ccc2c(c1)OCCO2)c1cccc(Br)c1` : > 66 µM (inactive)

Measured IC50 of `Cc1cc2cc(CN=C(S)Nc3ccc(OC(F)F)cc3)ccc2n1C` : > 66 µM (inactive)

Measured IC50 of `CCOC(=O)c1c(NC(=O)c2ccccc2)sc2c1CCc1ccccc1-2` : > 66 µM (inactive)

Please state, for each entry, its recorded IC50.
1. CCOC(=O)C1CCCN(C(=O)c2ccc(-c3ccc([N+](=O)[O-])cc3)o2)C1 (stereo unspecified)
2. Cc1cc(SCNC(=O)c2ccccc2)nc(C(C)C)n1

Marked response:
> 66 µM (inactive)
> 66 µM (inactive)

Please state, for each entry, its recorded IC50.
1. Cc1cccc(NC(=O)CSC(N)=O)c1C
2. O=C(Nc1ccc(N2CCOCC2)c(S(=O)(=O)Nc2ccc(Cl)cc2)c1)c1cnccn1
3. O=S(=O)(NC(=S)c1ccccc1)c1ccccc1
4. O=C(CSC1=Nc2ccccc2C2=NC(CC(=O)NC3CCCCC3)C(=O)N12)NCc1ccco1 (stereo unspecified)

Marked response:
1. > 66 µM (inactive)
2. > 66 µM (inactive)
3. > 66 µM (inactive)
4. 31.2 µM (inactive)
